Could you please report measured CRE for the items listed next?
Organism: Rattus norvegicus
RUN_DESCRIPTION: Open TG-GATES - Regimen: Single
Type: toxicity, organism-based, Sprague-Dawley
Parameters: regimen Single, gender Male, age 6 weeks
CONDITION: in vivo, po, 0 mg/kg, 9 h, tissue Plasma, route gavage, dose level Control

Check out these entries, answers already filled in.
| COMPOUND | CRE |
| --- | --- |
| OCCOCCN1CCN(C(c2ccccc2)c2ccc(Cl)cc2)CC1 (stereo not given) [HYDROXYZINE] | 0.1 mg/dL |
| CC[C@H]1[C@@H]2C[C@H]3[C@@H]4N(C)c5ccccc5[C@]45C[C@@H]([C@@H]2[C@H]5O)N3[C@@H]1O | 0.6 mg/dL |
| CC1=C(CC(=O)O)c2cc(F)ccc2/C1=C\c1ccc([S+](C)[O-])cc1 (stereo not given) | 0.2 mg/dL |
| ClC(Cl)(Cl)Cl [CARBON TETRACHLORIDE] | 0.4 mg/dL |

Now for the compound whose CRE we want.
CRE measured on O=NN(CCCl)C(=O)NC1CCCCC1 = 0.5 mg/dL
